- Study system: Estrogen receptor (Homo sapiens) (UniProt P03372)
- Sequence (P03372 whole entry, looked up): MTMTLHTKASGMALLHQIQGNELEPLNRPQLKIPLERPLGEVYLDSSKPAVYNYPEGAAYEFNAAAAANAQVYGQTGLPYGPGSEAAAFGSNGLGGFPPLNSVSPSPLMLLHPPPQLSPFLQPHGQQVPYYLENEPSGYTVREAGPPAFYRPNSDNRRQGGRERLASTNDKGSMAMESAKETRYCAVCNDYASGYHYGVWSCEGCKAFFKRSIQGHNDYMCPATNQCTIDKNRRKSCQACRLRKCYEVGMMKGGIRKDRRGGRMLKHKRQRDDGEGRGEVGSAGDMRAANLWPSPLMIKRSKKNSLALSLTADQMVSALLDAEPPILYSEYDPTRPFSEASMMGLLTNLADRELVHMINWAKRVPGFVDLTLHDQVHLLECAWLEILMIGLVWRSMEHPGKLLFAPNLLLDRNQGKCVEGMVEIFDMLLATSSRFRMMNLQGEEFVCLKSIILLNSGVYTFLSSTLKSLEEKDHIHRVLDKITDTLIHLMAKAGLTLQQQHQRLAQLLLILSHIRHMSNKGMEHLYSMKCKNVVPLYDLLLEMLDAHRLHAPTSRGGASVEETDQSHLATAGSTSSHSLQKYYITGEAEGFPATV
- Protocol notes: OT_ERa_GFPERaERE_0120: Odyssey Thera (OT) 2-hour HeLa Transcription Induction Assay for Estrogen Receptor (AID 2283382)
The source made the active and inactive calls. How the source made its calls: active means hit-call score of the fitted dose curve at least 0.9, where 1 is the maximum; inconclusive means response in the unintended direction; inactive means score below 0.9.
Result category, one only: YES for active, NO for inactive

See these solved cases before continuing.
>>> discrete_label("CCCC=NO")
"NO"
>>> discrete_label("c1ccc(P(c2ccccc2)c2ccccc2)cc1")
"YES"
>>> discrete_label("c1ccc2c(c1)CCCC2")
"NO"
>>> discrete_label("O=P(O)(Oc1ccccc1)Oc1ccccc1")
"NO"

Proceed to the following item.
Would you mind telling me which call this test gave O=CNC(N1CCN(C(NC=O)C(Cl)(Cl)Cl)CC1)C(Cl)(Cl)Cl (stereo not given) ?
NO

###

- Study system: Aryl hydrocarbon receptor (Homo sapiens)
- Protocol notes: ATG_Ahr_CIS: Attagene CIS-FACTORIAL HepG2 Assay for human Aryl Hydrocarbon Receptor (Ahr) (AID 2282930)
- Conditions used: HepG2 AhR cis-factorial reporter transcription; actives raise or lower the signal
Active and inactive are the calls of the source. Rule for the calls: active = hit-call score of the fitted dose curve at least 0.9, where 1 is the maximum; inactive = score below 0.9.
Result category, one only: active, inactive

See these solved cases before continuing.
>>> discrete_label("Oc1ccc(Cl)cc1")
"inactive"
>>> discrete_label("C[C@]12CC[C@H]3[C@@H](CC[C@@]45O[C@@H]4C(O)=C(C#N)C[C@]35C)[C@@H]1CC[C@@H]2O")
"inactive"
>>> discrete_label("Nc1ccc(-c2ccc(N)c(N)c2)cc1N")
"inactive"
>>> discrete_label("CNC(=O)Oc1cc(C)c(SC)c(C)c1")
"inactive"
>>> discrete_label("COC(C)(C)CCC[C@H](C)C/C=C/C(C)=C/C(=O)OC(C)C")
"inactive"

Proceed to the following item.
Would you mind telling me which call this test gave "CC(C)C#N" ?
inactive

###

- Protocol notes: CCTE_Mundy_HCI_Cortical_Synap_Neur_Matur_NeuriteSpotCountPerNeuriteLength: CCTE's Synaptogenesis and Neurite Maturation Assay in rat cortical cells for Neurite Spot Count per Neurite Length, Mundy Lab (AID 2284210)
Calls of active or inactive are those of the source. Rule for the calls: active = hit-call score of the fitted dose curve at least 0.9, where 1 is the maximum; inactive = score below 0.9.
Result category, one only: 1 (active), -1 (inactive)

See these solved cases before continuing.
>>> discrete_label("Cn1nc(C(F)(F)F)c(CS(=O)(=O)C2=NOC(C)(C)C2)c1OC(F)F")
-1
>>> discrete_label("CC1(C)[C@H](C(=O)O[C@H](C#N)c2cccc(Oc3ccccc3)c2)[C@@H]1C=C(Br)Br")
-1

Would you mind telling me which call this test gave "O=[As]O" ?
-1

Would you mind telling me which call this test gave "CC1(C)[C@@H](C=C(Cl)Cl)[C@@H]1C(=O)O[C@@H](C#N)c1ccc(F)c(Oc2ccccc2)c1" ?
-1

Would you mind telling me which call this test gave "CC(=O)[O-].CC(=O)[O-].O.O.O.[Pb+2]" ?
-1

Would you mind telling me which call this test gave "CC1(C)[C@H](C=C(Cl)Cl)[C@@H]1C(=O)O[C@@H](C#N)c1cccc(Oc2ccccc2)c1" ?
-1

Would you mind telling me which call this test gave "O=C(O)CNCP(=O)(O)O" ?
-1

Would you mind telling me which call this test gave "CCC[CH2][Sn]([CH2]CCC)([CH2]CCC)[O][Sn]([CH2]CCC)([CH2]CCC)[CH2]CCC" ?
-1

Would you mind telling me which call this test gave CCOP(=O)(OCC)OC(Cl)C(Cl)(Cl)Cl (stereo not given) ?
1
